experimental target: WT Nav1.5-α subunits (Homo sapiens, UniProt Q14524)
Construct: expressed in transfected cells; host or cells: HEK293 (transient transfection)
Sequence (Q14524 whole entry): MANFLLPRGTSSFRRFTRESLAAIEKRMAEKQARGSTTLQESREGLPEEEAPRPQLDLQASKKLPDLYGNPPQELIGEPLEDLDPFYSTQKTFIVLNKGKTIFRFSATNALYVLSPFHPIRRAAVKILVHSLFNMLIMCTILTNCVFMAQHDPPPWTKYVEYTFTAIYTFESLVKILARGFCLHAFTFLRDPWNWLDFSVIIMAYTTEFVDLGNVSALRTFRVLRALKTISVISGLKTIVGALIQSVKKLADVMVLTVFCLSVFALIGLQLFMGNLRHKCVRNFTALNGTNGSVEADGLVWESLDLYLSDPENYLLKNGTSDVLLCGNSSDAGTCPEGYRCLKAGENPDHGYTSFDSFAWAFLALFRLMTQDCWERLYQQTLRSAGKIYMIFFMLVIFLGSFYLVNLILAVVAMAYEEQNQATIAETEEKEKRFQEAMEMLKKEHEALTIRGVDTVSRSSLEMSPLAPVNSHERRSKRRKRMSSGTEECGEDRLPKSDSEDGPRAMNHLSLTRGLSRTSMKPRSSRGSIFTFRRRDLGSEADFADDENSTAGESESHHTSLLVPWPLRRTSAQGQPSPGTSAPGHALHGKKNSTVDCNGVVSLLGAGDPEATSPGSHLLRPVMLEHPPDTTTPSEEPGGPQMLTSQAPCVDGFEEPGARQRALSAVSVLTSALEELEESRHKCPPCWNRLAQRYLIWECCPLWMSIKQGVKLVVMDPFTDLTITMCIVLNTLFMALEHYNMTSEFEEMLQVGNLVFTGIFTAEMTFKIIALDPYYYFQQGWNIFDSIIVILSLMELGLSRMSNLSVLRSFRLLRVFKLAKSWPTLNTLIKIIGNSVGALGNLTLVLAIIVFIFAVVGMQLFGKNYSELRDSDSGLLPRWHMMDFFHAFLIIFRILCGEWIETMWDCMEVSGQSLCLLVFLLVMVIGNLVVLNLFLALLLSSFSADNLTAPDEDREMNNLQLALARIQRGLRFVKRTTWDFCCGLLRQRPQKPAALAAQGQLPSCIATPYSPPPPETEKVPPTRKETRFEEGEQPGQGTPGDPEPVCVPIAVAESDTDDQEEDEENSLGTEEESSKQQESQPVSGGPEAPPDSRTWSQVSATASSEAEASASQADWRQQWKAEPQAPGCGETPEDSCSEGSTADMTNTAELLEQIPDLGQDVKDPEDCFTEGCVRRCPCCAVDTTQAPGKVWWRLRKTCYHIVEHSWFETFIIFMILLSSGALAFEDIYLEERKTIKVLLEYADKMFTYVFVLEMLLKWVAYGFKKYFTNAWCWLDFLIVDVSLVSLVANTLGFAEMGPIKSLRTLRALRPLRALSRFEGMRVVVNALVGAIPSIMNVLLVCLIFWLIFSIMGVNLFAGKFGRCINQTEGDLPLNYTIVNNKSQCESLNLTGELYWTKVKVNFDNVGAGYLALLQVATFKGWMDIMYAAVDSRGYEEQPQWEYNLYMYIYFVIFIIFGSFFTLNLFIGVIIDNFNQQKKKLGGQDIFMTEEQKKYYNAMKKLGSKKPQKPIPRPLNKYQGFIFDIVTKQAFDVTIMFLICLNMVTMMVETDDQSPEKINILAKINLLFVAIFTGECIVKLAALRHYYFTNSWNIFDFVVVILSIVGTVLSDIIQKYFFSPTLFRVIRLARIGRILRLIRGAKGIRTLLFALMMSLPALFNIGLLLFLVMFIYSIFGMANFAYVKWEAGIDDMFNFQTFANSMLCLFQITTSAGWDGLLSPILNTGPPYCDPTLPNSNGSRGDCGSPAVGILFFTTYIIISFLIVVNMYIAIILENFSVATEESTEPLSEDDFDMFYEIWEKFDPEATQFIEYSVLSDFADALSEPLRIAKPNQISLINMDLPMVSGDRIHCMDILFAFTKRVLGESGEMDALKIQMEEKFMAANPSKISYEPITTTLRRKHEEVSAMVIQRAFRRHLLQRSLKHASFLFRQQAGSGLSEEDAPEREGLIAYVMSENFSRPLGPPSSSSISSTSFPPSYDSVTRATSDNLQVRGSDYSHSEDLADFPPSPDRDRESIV
test method notes: Whole-cell patch clamp, single voltage-pulse protocol (peak INa, conductance, fast inactivation) in transiently transfected HEK293 cells
Type: cell-based
test parameters: Hill curve slope
measured attribute: Peak INa Slope
Please reply with the number alone, leaving off any unit.

Ask: Returns the measured Peak INa Slope for the input compound. Input: CCc1ccccc1NS(=O)(=O)c1ccc2c(c1)=NC(=O)N=2
Reply: 14.37

Ask: Returns the measured Peak INa Slope for the input compound. Input: CN(C)[C@@H](CNC(=O)c1ccc2c(c1)=NC(=O)C(=O)N=2)c1ccco1
Reply: 1.064

Ask: Returns the measured Peak INa Slope for the input compound. Input: Cc1cc(F)ccc1NS(=O)(=O)c1ccc2c(c1)=NC(=O)N=2
Reply: 16.06

Ask: Returns the measured Peak INa Slope for the input compound. Input: C=CCNS(=O)(=O)c1ccc2c(c1)=NC(=O)N=2
Reply: 0.236

Ask: Returns the measured Peak INa Slope for the input compound. Input: COc1cccc(NS(=O)(=O)c2ccc3c(c2)=NC(=O)N=3)c1
Reply: 0.389

Ask: Returns the measured Peak INa Slope for the input compound. Input: O=C1N=c2ccc(C(=O)NCc3ccco3)cc2=NC1=O
Reply: 1.697

----------
experimental target: WT Nav1.5-α subunits (Homo sapiens, UniProt Q14524)
Construct: expressed in transfected cells; host or cells: HEK293 (transient transfection)
test method notes: Whole-cell patch clamp, single voltage-pulse protocol (peak INa, conductance, fast inactivation) in transiently transfected HEK293 cells
Format: cell-based
test parameters: 100 μM
Answer each item with its documented fast inactivation onset time constant FI −50 mV.
Record the value in ms, omitting the unit from your answer.

Ask: Returns the measured fast inactivation onset time constant FI −50 mV for the input compound. Input: CN(C)[C@@H](CNC(=O)c1ccc2c(c1)=NC(=O)C(=O)N=2)c1ccco1
Reply: 2.17

Ask: Returns the measured fast inactivation onset time constant FI −50 mV for the input compound. Input: CCc1ccccc1NS(=O)(=O)c1ccc2c(c1)=NC(=O)N=2
Reply: 1.82

Ask: Returns the measured fast inactivation onset time constant FI −50 mV for the input compound. Input: O=C1N=c2ccc(C(=O)NCc3ccco3)cc2=NC1=O
Reply: 1.92

Ask: Returns the measured fast inactivation onset time constant FI −50 mV for the input compound. Input: COc1cccc(NS(=O)(=O)c2ccc3c(c2)=NC(=O)N=3)c1
Reply: 1.71

Ask: Returns the measured fast inactivation onset time constant FI −50 mV for the input compound. Input: C=CCNS(=O)(=O)c1ccc2c(c1)=NC(=O)N=2
Reply: 1.61

Ask: Returns the measured fast inactivation onset time constant FI −50 mV for the input compound. Input: Cc1cc(F)ccc1NS(=O)(=O)c1ccc2c(c1)=NC(=O)N=2
Reply: 1.79

----------
Answer each item with its documented Peak INa −20 mV.
experimental target: WT Nav1.5-α subunits (Homo sapiens)
Construct: expressed in transfected cells; host or cells: HEK293 (transient transfection)
test method notes: Whole-cell patch clamp, single voltage-pulse protocol (peak INa, conductance, fast inactivation) in transiently transfected HEK293 cells
Format: cell-based
test parameters: 100 μM; normalized peak INa; 37° C.

Ask: Returns the measured Peak INa −20 mV for the input molecule. Input: O=C1N=c2ccc(C(=O)NCc3ccco3)cc2=NC1=O
Reply: −0.58 ± 0.10

Ask: Returns the measured Peak INa −20 mV for the input molecule. Input: C=CCNS(=O)(=O)c1ccc2c(c1)=NC(=O)N=2
Reply: −0.53 ± 0.07

Ask: Returns the measured Peak INa −20 mV for the input molecule. Input: Cc1cc(F)ccc1NS(=O)(=O)c1ccc2c(c1)=NC(=O)N=2
Reply: −0.73 ± 0.04

Ask: Returns the measured Peak INa −20 mV for the input molecule. Input: CCc1ccccc1NS(=O)(=O)c1ccc2c(c1)=NC(=O)N=2
Reply: −0.25 ± 0.00

Ask: Returns the measured Peak INa −20 mV for the input molecule. Input: COc1cccc(NS(=O)(=O)c2ccc3c(c2)=NC(=O)N=3)c1
Reply: −0.60 ± 0.26

Ask: Returns the measured Peak INa −20 mV for the input molecule. Input: CN(C)[C@@H](CNC(=O)c1ccc2c(c1)=NC(=O)C(=O)N=2)c1ccco1
Reply: −0.59 ± 0.06

Attribution: patent US20220125784A1
